We begin with a simple list: items and their reported pIC50.
- system-tested: recombinant human IGFBP-3 (human, UniProt P17936 28-291)
- Sequence (P17936 28-291 limits assumed): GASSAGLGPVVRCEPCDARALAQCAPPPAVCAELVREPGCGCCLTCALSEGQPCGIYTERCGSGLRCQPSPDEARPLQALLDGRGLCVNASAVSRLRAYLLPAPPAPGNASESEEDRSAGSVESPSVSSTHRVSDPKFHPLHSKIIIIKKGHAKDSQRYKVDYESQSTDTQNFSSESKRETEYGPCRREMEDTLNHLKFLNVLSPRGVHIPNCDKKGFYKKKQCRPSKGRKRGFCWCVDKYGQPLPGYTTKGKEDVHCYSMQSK
- experiment: competitive phage ELISA
- Protocol: E. coli cells (XL1-Blue, Stratagene) freshly transformed with phagemid vector were grown overnight in 5 mL 2YT medium (Sambrook et al., supra) in the presence of M13-VCS helper phage (Stratagene). […] Threefold serial dilutions of soluble competitor were prepared on non-absorbent microtiter plates (Nunc, F, 96 wells) with binding buffer (0.5% TWEEN 20%/PBS) containing phage at the previously determined concentrations. […]
Field pIC50 (float): negative decimal logarithm of the concentration in molar.

Worked examples, 2 binders total:
IGF-1 G42A displayed on phage (ligand, not shown: large carriers; small tags and cut ends, G1S-A70V background) SPETLCGAELVDALQFVCGDRGFYFNKPTGYGSSSRRAPQTAIVDECCFRSCDLRRLEMYCAPLKPAKSV :: 9.28
IGF-1 R56A displayed on phage (ligand, not shown: large carriers; small tags and cut ends, not fully specified; ends and bridges not checked, G1S-A70V background) SPETLCGAELVDALQFVCGDRGFYFNKPTGYGSSSRRAPQTGIVDECCFRSCDLRALEMYCAPLKPAKSV :: 9.00

Lookup: Quick one: pIC50 for IGF-1 M59A displayed on phage (ligand, not shown: large carriers; small tags and cut ends, not fully specified; ends and bridges not checked, G1S-A70V background) SPETLCGAELVDALQFVCGDRGFYFNKPTGYGSSSRRAPQTGIVDECCFRSCDLRRLEAYCAPLKPAKSV ?
Found: 9.13
